B1: DLC1 (parent)
chain: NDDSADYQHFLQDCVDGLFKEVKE

Variants of: B1
Test: protein stability index of a GFP-peptide fusion (GPS, HEK-293T) (PSI 1-6); higher = more stable;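 also: lentivirally expressed fusions sorted by FACS into six bins by GFP to DsRed ratio, PSI derived from sequencing read proportions per bin multiplied by bin number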
Conditions: c terminus: a fixed tail appended
Think of 3 as a floor: if protein stability index stands on it or above, it is rule met; beneath it, rule not met.

NDDSADYQHFLQDCVDGLFKEGKE : rule met
NDDSASYQHFLQDCVDGLFKEVKE : rule met
NDDSADYQHHLQDCVDGLFKEVKE : rule met
NDDSADYQHFLQDCVFGLFKEVKE : rule not met
NDDSAWYQHFLQDCVDGLFKEVKE : rule not met
NDDDADYQHFLQDCVDGLFKEVKE : rule not met
NDDSADKQHFLQDCVDGLFKEVKE : rule met
NDDSADYQHFLQDCVDGLFKAVKE : rule not met
NDDSADYQHFLQDCVDGLNKEVKE : rule met
NDDSADYQHFDQDCVDGLFKEVKE : rule met

Attention now turns to another entry.
Query string: protein stability index >= 3 for NDDSADYQHFLQDCVDGLFAEVKE ?
Result string: rule met
